Collected EC50 values appear next to each entry.
# target or system: T1, DLL3 on the surface of DLL3-positive cell lines SHP77 and NCI-H82 (UniProt Q9NYJ7 27-618, limits assumed)
# T1 construct: whole, on cells; The cell line of each number is named under assay
# T1 sequence (looked up): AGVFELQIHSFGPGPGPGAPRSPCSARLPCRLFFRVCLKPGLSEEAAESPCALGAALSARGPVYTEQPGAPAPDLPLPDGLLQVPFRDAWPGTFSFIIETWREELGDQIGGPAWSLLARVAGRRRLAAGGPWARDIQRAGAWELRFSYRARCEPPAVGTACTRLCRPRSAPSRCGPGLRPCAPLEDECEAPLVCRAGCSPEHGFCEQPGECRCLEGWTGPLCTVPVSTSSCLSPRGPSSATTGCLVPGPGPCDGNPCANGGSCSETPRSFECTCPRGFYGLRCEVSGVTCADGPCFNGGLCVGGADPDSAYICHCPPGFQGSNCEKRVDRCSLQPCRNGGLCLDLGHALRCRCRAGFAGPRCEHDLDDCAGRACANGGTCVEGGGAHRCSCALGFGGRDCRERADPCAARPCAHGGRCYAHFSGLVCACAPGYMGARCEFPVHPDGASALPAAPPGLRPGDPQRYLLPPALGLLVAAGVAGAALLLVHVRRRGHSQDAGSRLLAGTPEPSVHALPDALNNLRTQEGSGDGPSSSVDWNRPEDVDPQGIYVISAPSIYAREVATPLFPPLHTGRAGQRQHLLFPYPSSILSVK
# measurement notes: flow cytometry on SHP77 cells
readout name: EC50 (µg/mL)

INSERT INTO assay_data (binder, reading_unit, readout_value) VALUES
  ('Ab.76 scFv-human IgG Fc (Fc fusion, not shown: human IgG Fc) EIVMTQSPATLSVSPGERATLSCRASQSVSSNLAWYRQKPGQAPRLFIYGAYTRATDIPARFSGSGSGTEFTLTISSLQSEDFAVYYCQQYNNWPFTFGPGTKVDIKGGGGSGGGGSGGGGSEVQMVESGGVLVQPGMSLRLSCAASGFTFDDYAMHWVRQPPGKGLEWVSVISWNSGSIGYADSVKGRFTISRDNAKNSLYLQMNSLRAEDTAFYYCAKDLEGGVMDFDYWGQGTLVTVSS', 'µg/mL', 2.6),
  ('Ab.67 scFv-human IgG Fc (Fc fusion, Tested as scFv-human IgG Fc; not shown: human IgG Fc) DVVVTQSPLSLPVTLGQPASISCRSSQSLVYSDGNTYLNWFQQRPGQSPRRLVYQVSNRDSGVPDRFSGSGSGTDFTLKISGMEAEDAGVYYCMQGTHWPHTFGQGTKLEIKGGGGSGGGGSGGGGSEVHLVESGGGLVQPGGSLKLSCAASGFIFSGSSMHWVRQASGKGLEWIGRIRNKANNYATSYGASVQGRFTMSRDDSKNTAYLQMNSLKAEDTAVYYCTYLSGEFWGQGTLVTVSS', 'µg/mL', 0.14),
  ('Ab.73 scFv-human IgG Fc (Fc fusion, Tested as scFv-human IgG Fc; not shown: human IgG Fc) DVVMTQSPLSLPVTLGQPASISCRSSQSLGYSDGDTYLIWFLQRPGQSPRRLIYKVSNRDSGVPDRFSGSGSGTDFTLKISRVEAEDVGVYYCMQGTHWPYTFGQGTKLEIKGGGGSGGGGSGGGGSQVQVQESGPGLVKPSETLSLTCTVSTGSFSSHYWSWIRQPPGKSLEYIGYIYYTGTTNYNPSLKSRVTISVDTSKNQFSLNVNSVTAADTAVYYCAREGTFDIWGQGTMVTVSS', 'µg/mL', 0.077);
